Provenance of the data: PubChem BioAssay AID2060486

viability, T/C values, listed per item
System: IGROV1 complex spheroids (HUVEC, MSC), viability % test/control
EXPERIMENT DESCRIPTION: Anticancer human tumor IGROV1 cell line growth inhibition [GQUAD];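 note: spheroids exposed to compounds for 7 days before readout; 100% = DMSO vehicle control viability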
PROTOCOL CONDITIONS: second compound 0.1 µM; first compound 0.000999 µM; stronger effect = lower value
Numeric only. Scale: %

A selection of reference data follows.
// viability, T/C lookup, compound = Cc1[nH]c2ccccc2c1CCNCc1ccc(/C=C/C(=O)NO)cc1 + Cc1cnc(CNC(=O)c2c(=O)c3ccc(N4CCCN(C)CC4)nc3n3c2sc2ccccc23)cn1 , result: 41.6

// viability, T/C lookup, compound = Cn1ncnc1[C@H]1c2n[nH]c(=O)c3cc(F)cc(c23)N[C@@H]1c1ccc(F)cc1 + Cc1[nH]c2ccc(F)cc2c1-c1nc2c3cccnc3c3ncccc3c2[nH]1 , result: 100

Could you now look at the following compound, please?
// viability, T/C lookup, compound = CC[C@@]1(O)C(=O)OCc2c1cc1n(c2=O)Cc2cc3c(CN(C)C)c(O)ccc3nc2-1 + Cc1cnc(CNC(=O)c2c(=O)c3ccc(N4CCCN(C)CC4)nc3n3c2sc2ccccc23)cn1 , result: 33
